- System: Spermatozoa
- protocol.text: Spermicidal activity against human spermatozoa
- Assay type: functional
Provide the reported MEC of each item.
Give bare numbers, in %.

// for each compound below, give its MEC
1. CN[C@H]1CC[C@@H](c2ccc(Cl)c(Cl)c2)c2ccccc21.Cl [SERTRALINE HYDROCHLORIDE]
2. CCCCCCCCCc1ccc(OCCOCCOCCOCCOCCOCCOCCOCCOCCO)cc1
3. COCCCC/C(=N\OCCN)c1ccc(C(F)(F)F)cc1.O=C(O)/C=C\C(=O)O [FLUVOXAMINE MALEATE]
4. Cl.Cl.Fc1ccc([C@@H]2CCNC[C@H]2COc2ccc3c(c2)OCO3)cc1.Fc1ccc([C@@H]2CCNC[C@H]2COc2ccc3c(c2)OCO3)cc1.O [PAROXETINE HYDROCHLORIDE]

Solution:
0.5
0.05
0.1
0.1
